- Tested on: ACHN (Kidney Carcinoma)
- ASSAY PROTOCOL: combination Emax (second highest fraction inhibited in the dose matrix, 72 h); higher = more inhibition; extreme values may be limits of the assay
Reported combination Emax values follow for various compounds
Number, no unit, nothing else.

CN(CCO)CC[C@H](CSc1ccccc1)Nc1ccc(S(=O)(=O)NC(=O)c2ccc(N3CCC([C@@H](O)c4ccccc4-c4ccc(Cl)cc4)CC3)cc2)cc1S(=O)(=O)C(F)(F)F [AZD4320] + C[C@@H](Nc1cc(F)cc(F)c1)c1cc(C(=O)N(C)C)cc2c(=O)cc(N3CCOCC3)oc12 [AZD8186] (first compound max 1 µM, 7x7, partner max 3 µM): 0.252

Could you tell me which combination Emax is on file for COc1cccc(OCCCN)c1-c1cc(Nc2cnc(C#N)cn2)n[nH]1 [Prexasertib] + C[C@@H]1COCCN1C2=NC(=NC(=C2)C3(CC3)[S@](=N)(=O)C)C4=C5C=CNC5=NC=C4 [AZD6738] (first compound max 1 µM, 7x7, partner max 10 µM) ?
0.928

====

Reported combination Emax values follow for various molecules
- Test system: UACC-62 (Melanoma)
- ASSAY PROTOCOL: combination Emax (second highest fraction inhibited in the dose matrix, 72 h); higher = more inhibition; extreme values may be limits of the assay
Number, no unit, nothing else.

Could you tell me which combination Emax is on file for CC1(C)CCC(CN2CCN(c3ccc(C(=O)NS(=O)(=O)c4ccc(NCC5CCOCC5)c([N+](=O)[O-])c4)c(Oc4cnc5[nH]ccc5c4)c3)CC2)=C(c2ccc(Cl)cc2)C1 [Venetoclax] + C1CN(CCC1(C(=O)N[C@@H](CCO)C2=CC=C(C=C2)Cl)N)C3=NC=NC4=C3C=CN4 [Capivasertib] (first compound max 1 µM, 7x7, partner max 3 µM) ?
0.392

Could you tell me which combination Emax is on file for CC1(C)CCC(CN2CCN(c3ccc(C(=O)NS(=O)(=O)c4ccc(NCC5CCOCC5)c([N+](=O)[O-])c4)c(Oc4cnc5[nH]ccc5c4)c3)CC2)=C(c2ccc(Cl)cc2)C1 [Venetoclax] + CS(=O)(=O)CCNCc1ccc(-c2ccc3ncnc(Nc4ccc(OCc5cccc(F)c5)c(Cl)c4)c3c2)o1 [Lapatinib] (first compound max 1 µM, 7x7, partner max 10 µM) ?
0.256

====

- Tested on: TK10 (Kidney Carcinoma)
- ASSAY PROTOCOL: Bliss excess, mean over the matrix (fraction); higher = more synergy
Reported Bliss excess values follow for various molecules

In the examples that follow, each entry is paired with its recorded Bliss excess.
CC1(C)CCC(CN2CCN(c3ccc(C(=O)NS(=O)(=O)c4ccc(NCC5CCOCC5)c([N+](=O)[O-])c4)c(Oc4cnc5[nH]ccc5c4)c3)CC2)=C(c2ccc(Cl)cc2)C1 [Venetoclax] + COc1cc(Nc2ncc3c(n2)-c2ccc(Cl)cc2C(c2c(F)cccc2OC)=NC3)ccc1C(=O)O [Alisertib] (first compound max 1 µM, 7x7, partner max 10 µM): -0.0694
N#Cc1cnc(Nc2cc(NC[C@H]3CNCCO3)c(C(F)(F)F)cn2)cn1 [SRA737] + C=CCn1c(=O)c2cnc(Nc3ccc(N4CCN(C)CC4)cc3)nc2n1-c1cccc(C(C)(C)O)n1 [AZD1775] (first compound max 10 µM, partner max 1 µM): 0.0566
Cc1cc2ncnn2cc1Nc1ncc2c(n1)n(C1CCOCC1)c(=O)n2C [AZD7648] + C=CCn1c(=O)c2cnc(Nc3ccc(N4CCN(C)CC4)cc3)nc2n1-c1cccc(C(C)(C)O)n1 [AZD1775] (first compound max 10 µM, partner max 1 µM): 0.0668

Could you tell me which Bliss excess is on file for CC(=O)Nc1cccc(-n2c(=O)n(C3CC3)c(=O)c3c(Nc4ccc(I)cc4F)n(C)c(=O)c(C)c32)c1 [Trametinib] + Cc1nc(-c2cn3c(n2)-c2ccc(-c4cnn(C(C)(C)C(N)=O)c4)cc2OCC3)n(C(C)C)n1 [Taselisib] (first compound max 1 µM, 7x7, partner max 10 µM) ?
0.0739

====

- System: EFM-19 (Breast Carcinoma)
- ASSAY PROTOCOL: Bliss excess, mean over the matrix (fraction); higher = more synergy
Reported Bliss excess values follow for various molecules

C[C@@H](Oc1cc(-c2cnn(C3CCNCC3)c2)cnc1N)c1c(Cl)ccc(F)c1Cl [Crizotinib] + CC1=C(C(=CC=C1)Cl)NC(=O)C2=CN=C(S2)NC3=CC(=NC(=N3)C)N4CCN(CC4)CCO [Dasatinib] (first compound max 10 µM, 7x7, partner max 2 µM): 0.0874

Now let's try a different one.
Look up Bliss excess with EFM-19 (Breast Carcinoma) for this molecule: COc1nnc2ccc(N3CCC(c4ccc(OCCN5CCN(C)C(=O)[C@H]5C)cc4)CC3)nn12 [AZD5153] + C[C@@H]1COCCN1C2=NC(=NC(=C2)C3(CC3)[S@](=N)(=O)C)C4=C5C=CNC5=NC=C4 [AZD6738] (first compound max 1 µM, 7x7, partner max 10 µM)
0.0541

====

Reported combination Emax values follow for various compounds
- System: Caov-4 (Ovarian Carcinoma)
- ASSAY PROTOCOL: combination Emax (second highest fraction inhibited in the dose matrix, 72 h); higher = more inhibition; extreme values may be limits of the assay
Number, no unit, nothing else.

CS(=O)(=O)CCNCc1ccc(-c2ccc3ncnc(Nc4ccc(OCc5cccc(F)c5)c(Cl)c4)c3c2)o1 [Lapatinib] + NC1(c2ccc(-c3nc4ccn5c(=O)[nH]nc5c4cc3-c3ccccc3)cc2)CCC1 [MK-2206] (first compound max 10 µM, 7x7, partner max 10 µM): 0.878
Cn1cnc2c(F)c(Nc3ccc(Br)cc3Cl)c(C(=O)NOCCO)cc21 [Selumetinib] + C[C@@H]1COCCN1C2=NC(=NC(=C2)C3(CC3)[S@](=N)(=O)C)C4=C5C=CNC5=NC=C4 [AZD6738] (first compound max 10 µM, 7x7, partner max 10 µM): 0.76
CN(C)CCCOc1ccc(-c2ccc3ncc4c(c3c2)n(C2CCOCC2)c(=O)n4C)cn1 [AZD0156] + C[C@@H]1COCCN1C2=NC(=NC(=C2)C3(CC3)[S@](=N)(=O)C)C4=C5C=CNC5=NC=C4 [AZD6738] (first compound max 1 µM, 7x7, partner max 10 µM): 0.744
COc1cccc(OCCCN)c1-c1cc(Nc2cnc(C#N)cn2)n[nH]1 [Prexasertib] + C[C@@H]1COCCN1C2=NC(=NC(=C2)C3(CC3)[S@](=N)(=O)C)C4=C5C=CNC5=NC=C4 [AZD6738] (first compound max 1 µM, 7x7, partner max 10 µM): 0.965
O=C(c1cc(Cc2n[nH]c(=O)c3ccccc23)ccc1F)N1CCN(C(=O)C2CC2)CC1 [Olaparib] + Cc1c2c(nn1C)CSCc1cc(n(C)n1)CSc1cc(c3ccccc3c1)OCCCc1c(C(=O)O)n(C)c3c-2c(Cl)ccc13 [AZD5991] (first compound max 10 µM, 7x7, partner max 1 µM): 0.482
Cc1cc2ncnn2cc1Nc1ncc2c(n1)n(C1CCOCC1)c(=O)n2C [AZD7648] + CN(C)CCCOc1ccc(-c2ccc3ncc4c(c3c2)n(C2CCOCC2)c(=O)n4C)cn1 [AZD0156] (first compound max 10 µM, 7x7, partner max 1 µM): 0.344

Now let's try a different one.
Could you tell me which combination Emax is on file for CC1(C)CCC(CN2CCN(c3ccc(C(=O)NS(=O)(=O)c4ccc(NCC5CCOCC5)c([N+](=O)[O-])c4)c(Oc4cnc5[nH]ccc5c4)c3)CC2)=C(c2ccc(Cl)cc2)C1 [Venetoclax] + C=CCn1c(=O)c2cnc(Nc3ccc(N4CCN(C)CC4)cc3)nc2n1-c1cccc(C(C)(C)O)n1 [AZD1775] (first compound max 1 µM, partner max 1 µM) ?
0.811

====

- Tested on: D-263MG (Glioblastoma)
- ASSAY PROTOCOL: Bliss excess, mean over the matrix (fraction); higher = more synergy
OUTCOME MEASURE: Bliss excess
Number, no unit, nothing else.

In the examples that follow, each entry is paired with its recorded Bliss excess.
Cc1c2c(nn1C)CSCc1cc(n(C)n1)CSc1cc(c3ccccc3c1)OCCCc1c(C(=O)O)n(C)c3c-2c(Cl)ccc13 [AZD5991] + Nc1ccn([C@@H]2O[C@H](CO)[C@@H](O)C2(F)F)c(=O)n1 [Gemcitabine] (first compound max 1 µM, 7x7, partner max 0.3 µM): 0.08
CC(=O)c1c(C)c2cnc(Nc3ccc(N4CCNCC4)cn3)nc2n(C2CCCC2)c1=O [Palbociclib] + Cc1c2c(nn1C)CSCc1cc(n(C)n1)CSc1cc(c3ccccc3c1)OCCCc1c(C(=O)O)n(C)c3c-2c(Cl)ccc13 [AZD5991] (first compound max 10 µM, 7x7, partner max 1 µM): -0.0135
NC1(C(=O)N[C@@H](CCO)c2ccc(Cl)cc2)CCN(c2ncnc3[nH]ccc23)CC1 [Capivasertib] + CC(C)n1c(=O)n(C)c2cnc3cc(F)c(-c4ccc(OCCCN5CCCCC5)nc4)cc3c21 [AZD1390] (first compound max 10 µM, 7x7, partner max 0.3 µM): -0.0713
Cn1cnc2c(F)c(Nc3ccc(Br)cc3Cl)c(C(=O)NOCCO)cc21 [Selumetinib] + C[C@@H]1COCCN1C2=NC(=NC(=C2)C3(CC3)[S@](=N)(=O)C)C4=C5C=CNC5=NC=C4 [AZD6738] (first compound max 10 µM, 7x7, partner max 10 µM): -0.03

Now let's try a different one.
Could you tell me which Bliss excess is on file for CC(=O)c1c(C)c2cnc(Nc3ccc(N4CCNCC4)cn3)nc2n(C2CCCC2)c1=O [Palbociclib] + Cn1cnc2c(F)c(Nc3ccc(Br)cc3Cl)c(C(=O)NOCCO)cc21 [Selumetinib] (first compound max 10 µM, 7x7, partner max 10 µM) ?
-0.0077
